Item-by-item account of IC50
experimentalTarget: TYK2 (Homo sapiens)
Construct: endogenous in cells
Sequence (P29597 whole entry): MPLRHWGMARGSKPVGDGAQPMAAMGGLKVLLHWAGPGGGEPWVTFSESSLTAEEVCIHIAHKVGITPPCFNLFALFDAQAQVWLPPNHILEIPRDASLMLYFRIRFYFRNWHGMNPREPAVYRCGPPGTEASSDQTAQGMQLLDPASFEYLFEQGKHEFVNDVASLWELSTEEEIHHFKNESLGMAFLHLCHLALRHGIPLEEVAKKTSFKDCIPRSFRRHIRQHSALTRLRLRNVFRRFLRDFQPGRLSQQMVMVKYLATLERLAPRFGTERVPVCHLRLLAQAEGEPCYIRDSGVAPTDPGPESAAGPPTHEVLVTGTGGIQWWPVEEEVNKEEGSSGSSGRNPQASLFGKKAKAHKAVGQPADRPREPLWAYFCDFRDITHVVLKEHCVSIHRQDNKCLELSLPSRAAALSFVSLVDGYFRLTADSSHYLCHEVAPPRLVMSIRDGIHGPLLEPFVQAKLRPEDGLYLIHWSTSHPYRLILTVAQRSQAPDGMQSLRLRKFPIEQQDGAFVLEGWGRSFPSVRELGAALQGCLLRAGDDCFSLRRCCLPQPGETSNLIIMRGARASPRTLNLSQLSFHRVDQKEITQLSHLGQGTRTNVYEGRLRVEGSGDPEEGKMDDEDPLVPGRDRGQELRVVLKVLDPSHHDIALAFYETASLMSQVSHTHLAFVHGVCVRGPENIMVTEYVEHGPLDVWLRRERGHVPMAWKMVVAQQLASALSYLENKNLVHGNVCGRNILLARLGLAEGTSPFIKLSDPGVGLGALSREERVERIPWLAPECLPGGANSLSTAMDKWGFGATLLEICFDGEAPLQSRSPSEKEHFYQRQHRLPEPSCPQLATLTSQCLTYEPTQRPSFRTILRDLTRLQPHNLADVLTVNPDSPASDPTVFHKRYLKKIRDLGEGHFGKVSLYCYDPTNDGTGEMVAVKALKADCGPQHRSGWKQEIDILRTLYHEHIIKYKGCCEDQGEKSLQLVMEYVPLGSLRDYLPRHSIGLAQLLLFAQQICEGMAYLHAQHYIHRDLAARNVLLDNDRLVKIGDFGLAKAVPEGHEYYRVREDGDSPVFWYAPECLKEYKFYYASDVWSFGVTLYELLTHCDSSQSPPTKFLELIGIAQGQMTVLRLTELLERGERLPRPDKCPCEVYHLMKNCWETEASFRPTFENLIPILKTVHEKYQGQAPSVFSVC
experimentDescription: Kinobeads assay, TYK2
experimentalParameters: mixed Molt4/Ramos lysate, read-out: Inhibition values (IC50) TYK2

O=C([C@@H](Nc1nc(Nc2cnn(CCO)c2)ncc1Cl)c1ccccc1)N1CCCC1; 1 to 10 µM
OCCn1cc(Nc2ncc(Cl)c(N[C@@H](CO)c3ccccc3)n2)cn1; 1 to 10 µM
CN(C)C(=O)[C@@H](Nc1nc(Nc2cnn(CCO)c2)ncc1Cl)c1ccccc1; 1 to 10 µM
Cn1cc(Nc2ncc(F)c(N[C@H](CO)c3cc(F)cc(F)c3)n2)cn1; 1 to 10 µM

Value of IC50 reported for the molecule NC(=O)Cn1cc(Nc2ncc(Cl)c(N[C@H](CO)c3ccccn3)n2)cn1 is 0.1 to 1 µM

Value of IC50 reported for the molecule CCn1cc(Nc2ncc(Cl)c(N[C@H](CO)c3cccc(OC)c3)n2)cn1 is 1 to 10 µM

Value of IC50 reported for the molecule OCCn1cc(Nc2ncc(Cl)c(NC(CO)c3ccccc3F)n2)cn1 (stereo not shown) is 0.1 to 1 µM

---

experimentalTarget: JAK1 (Homo sapiens, UniProt P23458)
Construct: endogenous in cells
Sequence (P23458 whole entry): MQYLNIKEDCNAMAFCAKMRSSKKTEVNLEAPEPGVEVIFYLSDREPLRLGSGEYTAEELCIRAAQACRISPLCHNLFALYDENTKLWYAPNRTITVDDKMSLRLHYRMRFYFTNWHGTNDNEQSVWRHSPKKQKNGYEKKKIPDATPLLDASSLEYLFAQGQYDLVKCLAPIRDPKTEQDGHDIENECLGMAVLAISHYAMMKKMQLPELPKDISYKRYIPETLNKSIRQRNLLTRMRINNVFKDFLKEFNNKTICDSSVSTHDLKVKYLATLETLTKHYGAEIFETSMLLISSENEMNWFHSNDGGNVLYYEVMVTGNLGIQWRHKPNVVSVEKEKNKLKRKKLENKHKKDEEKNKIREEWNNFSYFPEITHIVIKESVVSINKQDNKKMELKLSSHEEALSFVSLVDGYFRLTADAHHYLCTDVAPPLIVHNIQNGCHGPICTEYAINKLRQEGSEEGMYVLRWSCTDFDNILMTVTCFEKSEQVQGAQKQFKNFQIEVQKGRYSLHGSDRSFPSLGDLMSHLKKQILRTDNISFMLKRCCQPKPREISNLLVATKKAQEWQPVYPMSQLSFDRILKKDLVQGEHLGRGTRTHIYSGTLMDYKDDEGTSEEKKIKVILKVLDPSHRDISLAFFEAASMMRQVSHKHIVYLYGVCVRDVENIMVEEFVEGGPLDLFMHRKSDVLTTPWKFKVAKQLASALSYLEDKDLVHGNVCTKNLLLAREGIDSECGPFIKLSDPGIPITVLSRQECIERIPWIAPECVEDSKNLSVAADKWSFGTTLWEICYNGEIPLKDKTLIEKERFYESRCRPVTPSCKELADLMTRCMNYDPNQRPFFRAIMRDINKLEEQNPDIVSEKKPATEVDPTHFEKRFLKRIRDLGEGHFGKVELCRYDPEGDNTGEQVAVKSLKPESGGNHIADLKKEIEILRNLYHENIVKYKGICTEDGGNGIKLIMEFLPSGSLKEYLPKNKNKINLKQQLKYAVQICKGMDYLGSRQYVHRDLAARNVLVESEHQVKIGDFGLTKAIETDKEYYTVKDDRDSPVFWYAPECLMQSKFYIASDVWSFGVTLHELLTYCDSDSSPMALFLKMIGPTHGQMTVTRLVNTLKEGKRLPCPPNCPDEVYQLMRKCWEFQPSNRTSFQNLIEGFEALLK
experimentDescription: Kinobeads assay, JAK1
experimentalParameters: mixed Molt4/Ramos lysate, read-out: Inhibition values (IC50) JAK1
Item-by-item account of IC50

// solved cases for IC50 follow
OC[C@@H](Nc1nc(Nc2cn[nH]c2)ncc1Cl)c1ccccc1; 1000 to 10000 nM
Cn1cc(Nc2ncc(Cl)c(N[C@H](CO)c3cc(F)ccc3F)n2)cn1; 100 to 1000 nM
Cn1cc(Nc2ncc(Cl)c(N[C@H](CO)c3cccnc3)n2)cn1; 100 to 1000 nM
OCCn1cc(Nc2ncc(Cl)c(NC(CO)c3c(F)cccc3F)n2)cn1 (stereo not drawn); 100 to 1000 nM
O=C(Cn1cc(Nc2ncc(Cl)c(N[C@H](CO)c3cccnc3)n2)cn1)N1CCOCC1; 100 to 1000 nM
OCCn1cc(Nc2ncc(Cl)c(N[C@H](CO)c3cc(F)cc(F)c3)n2)cn1; < 100 nM
NC(=O)Cn1cc(Nc2ncc(Cl)c(N[C@H](CO)c3cccc(F)c3)n2)cn1; < 100 nM
CC(C)NC(=O)Cn1cc(Nc2ncc(Cl)c(N[C@H](CO)c3ccccc3)n2)cn1; 100 to 1000 nM
Cn1cc(Nc2ncc(F)c(N[C@H](CO)c3ccccc3)n2)cn1; 1000 to 10000 nM
Cn1cc(Nc2ncc(F)c(N[C@H](CO)c3cc(F)ccc3F)n2)cn1; 100 to 1000 nM

Value of IC50 reported for the compound Cn1cc(Nc2ncc(Cl)c(NC(CO)c3cc(F)cc(F)c3)n2)cn1 (stereo not drawn) is 100 to 1000 nM

Value of IC50 reported for the compound CCC(Nc1nc(Nc2cnn(C)c2)ncc1Cl)c1ccccc1F (stereo not drawn) is 1000 to 10000 nM

---

Item-by-item account of IC50
experimentalTarget: JAK3 (Homo sapiens, UniProt P52333)
Construct: endogenous in cells
Sequence (P52333 whole entry): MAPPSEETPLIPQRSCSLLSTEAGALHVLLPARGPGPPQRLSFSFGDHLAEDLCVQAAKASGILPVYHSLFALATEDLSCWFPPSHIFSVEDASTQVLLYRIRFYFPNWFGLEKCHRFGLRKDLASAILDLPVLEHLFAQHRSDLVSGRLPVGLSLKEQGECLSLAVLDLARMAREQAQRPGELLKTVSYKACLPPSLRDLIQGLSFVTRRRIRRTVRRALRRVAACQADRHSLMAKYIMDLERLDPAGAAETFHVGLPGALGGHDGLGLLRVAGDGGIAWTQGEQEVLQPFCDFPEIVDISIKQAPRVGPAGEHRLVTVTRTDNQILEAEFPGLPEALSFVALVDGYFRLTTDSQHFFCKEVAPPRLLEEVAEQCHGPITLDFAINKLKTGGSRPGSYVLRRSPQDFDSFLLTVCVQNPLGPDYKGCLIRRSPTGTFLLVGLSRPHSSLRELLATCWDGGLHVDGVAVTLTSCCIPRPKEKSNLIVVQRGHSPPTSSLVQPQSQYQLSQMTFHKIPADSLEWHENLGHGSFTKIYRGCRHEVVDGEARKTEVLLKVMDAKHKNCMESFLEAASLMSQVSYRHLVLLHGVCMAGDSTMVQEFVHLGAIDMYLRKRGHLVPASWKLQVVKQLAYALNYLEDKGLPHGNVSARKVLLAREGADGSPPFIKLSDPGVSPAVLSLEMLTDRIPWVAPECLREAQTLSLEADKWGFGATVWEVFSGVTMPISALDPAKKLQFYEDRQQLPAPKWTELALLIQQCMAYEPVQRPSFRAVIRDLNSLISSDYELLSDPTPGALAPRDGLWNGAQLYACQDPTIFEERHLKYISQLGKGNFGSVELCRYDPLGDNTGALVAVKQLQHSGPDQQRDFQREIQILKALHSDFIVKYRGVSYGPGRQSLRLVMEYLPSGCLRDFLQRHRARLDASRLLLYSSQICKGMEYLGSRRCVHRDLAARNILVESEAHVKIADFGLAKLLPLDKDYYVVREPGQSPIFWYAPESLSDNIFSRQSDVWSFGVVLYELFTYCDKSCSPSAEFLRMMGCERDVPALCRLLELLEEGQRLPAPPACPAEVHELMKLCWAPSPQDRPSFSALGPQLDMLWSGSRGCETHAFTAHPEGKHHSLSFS
experimentDescription: Kinobeads assay, JAK3
experimentalParameters: mixed Molt4/Ramos lysate, read-out: Inhibition values (IC50) JAK3

// solved cases for IC50 follow
Cn1cc(Nc2ncc(Cl)c(NC(CO)c3cccc(N4CC5(COC5)C4)c3)n2)cn1 (stereo not shown); 100 to 1000 nM
OCCn1cc(Nc2ncc(Cl)c(NC(CO)c3ccc(F)cc3)n2)cn1 (stereo not shown); 100 to 1000 nM
Cc1cnc(Nc2cnn(CC(=O)N(C)C)c2)nc1N[C@H](CO)c1ccccc1; < 100 nM

Okay, next one:
Note to self: IC50 of COc1cccc([C@@H](CO)Nc2nc(Nc3cnn(C(C)C)c3)ncc2Cl)c1 with JAK3 (Homo sapiens, UniProt P52333) was 100 to 1000 nM

The values you see were collected from patent US20140179664A1.
